The reported measurements were obtained from paper PMC7824897.

Assay: in vivo
Conditions: female, athymic nude-Foxn1nu/Foxn1+, mouse, 20 pmol, total radioactivity, Biodistribution Adrenals
Where a SMILES comes first, the peptide text is derived from it. Bridges are numbered along the chain shown (N, C = ends). [ ]: non-standard residue; d: D form. The star is where a group is joined. dPhe(4-NHCONH2) = NC(=O)Nc1ccc(C[C@@H](N)C(=O)O)cc1; Phe(4-Cl) = N[C@@H](Cc1ccc(Cl)cc1)C(=O)O; X1 = NCCNCC(CNCCN)C(=O)*
assay-metric: tissue uptake at 24 h (%ID/g)
A number alone suffices; assume %ID/g.

tissue uptake at 24 h reading for C[C@@H](O)[C@@H]1NC(=O)[C@H](CCCCN)NC(=O)[C@@H](Cc2c[nH]c3ccccc23)NC(=O)[C@H](Cc2ccc(O)cc2)NC(=O)[C@H](NC(=O)[C@H](Cc2ccc(Cl)cc2)NC(=O)C(CNCCN)CNCCN)CSSC[C@@H](C(=O)N[C@H](Cc2ccc(O)cc2)C(N)=O)NC1=O [[^99mTc]Tc-TECANT-2, metal not drawn] : 0.73

Memo: C[C@@H](O)[C@@H]1NC(=O)[C@H](CCCCN)NC(=O)[C@@H](Cc2ccc(NC(N)=O)cc2)NC(=O)[C@H](Cc2ccc(O)cc2)NC(=O)[C@H](NC(=O)[C@H](Cc2ccc(Cl)cc2)NC(=O)C(CNCCN)CNCCN)CSSC[C@@H](C(=O)N[C@H](Cc2ccc(O)cc2)C(N)=O)NC1=O [[^99mTc]Tc-TECANT-1, metal not drawn] (X1-[Phe(4-Cl)][dC]Y[dPhe(4-NHCONH2)]KTC[dY]-NH2; disulfide 2-7) , reported tissue uptake at 24 h: 0.85

====

Experiment: in vivo
Conditions: female, athymic nude-Foxn1^nu/Foxn1^+, mouse, 20 pmol, total radioactivity, Biodistribution Heart
Where a SMILES comes first, the peptide text is derived from it. Bridges are numbered along the chain shown (N, C = ends). [ ]: non-standard residue; d: D form. The star is where a group is joined. dPhe(4-NHCONH2) = NC(=O)Nc1ccc(C[C@@H](N)C(=O)O)cc1; Phe(4-Cl) = N[C@@H](Cc1ccc(Cl)cc1)C(=O)O; X1 = NCCNCC(CNCCN)C(=O)*
// tissue uptake at 1 h lookup, one value per entry
Answer with a number only, understood to be in %ID/g.

molecule	numeric-value
C[C@@H](O)[C@@H]1NC(=O)[C@H](CCCCN)NC(=O)[C@@H](Cc2c[nH]c3ccccc23)NC(=O)[C@H](Cc2ccc(O)cc2)NC(=O)[C@H](NC(=O)[C@H](Cc2ccc(Cl)cc2)NC(=O)C(CNCCN)CNCCN)CSSC[C@@H](C(=O)N[C@H](Cc2ccc(O)cc2)C(N)=O)NC1=O [[^99mTc]Tc-TECANT-2, metal not drawn]	1.64

molecule C[C@@H](O)[C@@H]1NC(=O)[C@H](CCCCN)NC(=O)[C@@H](Cc2ccc(NC(N)=O)cc2)NC(=O)[C@H](Cc2ccc(O)cc2)NC(=O)[C@H](NC(=O)[C@H](Cc2ccc(Cl)cc2)NC(=O)C(CNCCN)CNCCN)CSSC[C@@H](C(=O)N[C@H](Cc2ccc(O)cc2)C(N)=O)NC1=O [[^99mTc]Tc-TECANT-1, metal not drawn] (X1-[Phe(4-Cl)][dC]Y[dPhe(4-NHCONH2)]KTC[dY]-NH2; disulfide 2-7) , tissue uptake at 1 h observed: 0.71

====

Each item that follows carries a reported tissue uptake at 4 h.
Assay: in vivo
Conditions: female, athymic nude-Foxn1nu/Foxn1+, mouse, 20 pmol, total radioactivity, Biodistribution HEK-SST2 (+) tumour uptake
Where a SMILES comes first, the peptide text is derived from it. Bridges are numbered along the chain shown (N, C = ends). [ ]: non-standard residue; d: D form. The star is where a group is joined. dPhe(4-NHCONH2) = NC(=O)Nc1ccc(C[C@@H](N)C(=O)O)cc1; Phe(4-Cl) = N[C@@H](Cc1ccc(Cl)cc1)C(=O)O; X1 = NCCNCC(CNCCN)C(=O)*
Answer with a number only, understood to be in %ID/g.

molecule	assay-metric	numeric-value
C[C@@H](O)[C@@H]1NC(=O)[C@H](CCCCN)NC(=O)[C@@H](Cc2c[nH]c3ccccc23)NC(=O)[C@H](Cc2ccc(O)cc2)NC(=O)[C@H](NC(=O)[C@H](Cc2ccc(Cl)cc2)NC(=O)C(CNCCN)CNCCN)CSSC[C@@H](C(=O)N[C@H](Cc2ccc(O)cc2)C(N)=O)NC1=O [[^99mTc]Tc-TECANT-2, metal not drawn]	tissue uptake at 4 h	28.4

Then this molecule:
Record C[C@@H](O)[C@@H]1NC(=O)[C@H](CCCCN)NC(=O)[C@@H](Cc2ccc(NC(N)=O)cc2)NC(=O)[C@H](Cc2ccc(O)cc2)NC(=O)[C@H](NC(=O)[C@H](Cc2ccc(Cl)cc2)NC(=O)C(CNCCN)CNCCN)CSSC[C@@H](C(=O)N[C@H](Cc2ccc(O)cc2)C(N)=O)NC1=O [[^99mTc]Tc-TECANT-1, metal not drawn] (X1-[Phe(4-Cl)][dC]Y[dPhe(4-NHCONH2)]KTC[dY]-NH2; disulfide 2-7) . Reported tissue uptake at 4 h: 26

====

Experiment: in vivo
Conditions: female, athymic nude-Foxn1nu/Foxn1+, mouse, 20 pmol, total radioactivity, Biodistribution HEK-SST2 (−) tumour uptake
Where a SMILES comes first, the peptide text is derived from it. Bridges are numbered along the chain shown (N, C = ends). [ ]: non-standard residue; d: D form. The star is where a group is joined. dPhe(4-NHCONH2) = NC(=O)Nc1ccc(C[C@@H](N)C(=O)O)cc1; Phe(4-Cl) = N[C@@H](Cc1ccc(Cl)cc1)C(=O)O; X1 = NCCNCC(CNCCN)C(=O)*
Item-by-item account of tissue uptake at 4 h
Output spec: scalar in %ID/g, unitless text.

compound	tissue uptake at 4 h / %ID/g
C[C@@H](O)[C@@H]1NC(=O)[C@H](CCCCN)NC(=O)[C@@H](Cc2ccc(NC(N)=O)cc2)NC(=O)[C@H](Cc2ccc(O)cc2)NC(=O)[C@H](NC(=O)[C@H](Cc2ccc(Cl)cc2)NC(=O)C(CNCCN)CNCCN)CSSC[C@@H](C(=O)N[C@H](Cc2ccc(O)cc2)C(N)=O)NC1=O [[^99mTc]Tc-TECANT-1, metal not drawn] (X1-[Phe(4-Cl)][dC]Y[dPhe(4-NHCONH2)]KTC[dY]-NH2; disulfide 2-7)	0.88

With those in mind, consider the next compound.
So, C[C@@H](O)[C@@H]1NC(=O)[C@H](CCCCN)NC(=O)[C@@H](Cc2c[nH]c3ccccc23)NC(=O)[C@H](Cc2ccc(O)cc2)NC(=O)[C@H](NC(=O)[C@H](Cc2ccc(Cl)cc2)NC(=O)C(CNCCN)CNCCN)CSSC[C@@H](C(=O)N[C@H](Cc2ccc(O)cc2)C(N)=O)NC1=O [[^99mTc]Tc-TECANT-2, metal not drawn] ? Its tissue uptake at 4 h was 0.38

====

Recorded tissue uptake at 1 h, one value per entry.
Assay: in vivo
Details: female, athymic nude-Foxn1nu/Foxn1+, mouse, 20 pmol, total radioactivity, Biodistribution Pituitary
Where a SMILES comes first, the peptide text is derived from it. Bridges are numbered along the chain shown (N, C = ends). [ ]: non-standard residue; d: D form. The star is where a group is joined. dPhe(4-NHCONH2) = NC(=O)Nc1ccc(C[C@@H](N)C(=O)O)cc1; Phe(4-Cl) = N[C@@H](Cc1ccc(Cl)cc1)C(=O)O; X1 = NCCNCC(CNCCN)C(=O)*
Give the quantity in %ID/g, number only.

molecule	tissue uptake at 1 h (%ID/g)
C[C@@H](O)[C@@H]1NC(=O)[C@H](CCCCN)NC(=O)[C@@H](Cc2c[nH]c3ccccc23)NC(=O)[C@H](Cc2ccc(O)cc2)NC(=O)[C@H](NC(=O)[C@H](Cc2ccc(Cl)cc2)NC(=O)C(CNCCN)CNCCN)CSSC[C@@H](C(=O)N[C@H](Cc2ccc(O)cc2)C(N)=O)NC1=O [[^99mTc]Tc-TECANT-2, metal not drawn]	4.74

The value of tissue uptake at 1 h measured for the molecule C[C@@H](O)[C@@H]1NC(=O)[C@H](CCCCN)NC(=O)[C@@H](Cc2ccc(NC(N)=O)cc2)NC(=O)[C@H](Cc2ccc(O)cc2)NC(=O)[C@H](NC(=O)[C@H](Cc2ccc(Cl)cc2)NC(=O)C(CNCCN)CNCCN)CSSC[C@@H](C(=O)N[C@H](Cc2ccc(O)cc2)C(N)=O)NC1=O [[^99mTc]Tc-TECANT-1, metal not drawn] (X1-[Phe(4-Cl)][dC]Y[dPhe(4-NHCONH2)]KTC[dY]-NH2; disulfide 2-7) turned out to be 9.71

====

Experiment: in vivo
Conditions: female, athymic nude-Foxn1^nu/Foxn1^+, mouse, 20 pmol, total radioactivity, Biodistribution Lung
Where a SMILES comes first, the peptide text is derived from it. Bridges are numbered along the chain shown (N, C = ends). [ ]: non-standard residue; d: D form. The star is where a group is joined. dPhe(4-NHCONH2) = NC(=O)Nc1ccc(C[C@@H](N)C(=O)O)cc1; Phe(4-Cl) = N[C@@H](Cc1ccc(Cl)cc1)C(=O)O; X1 = NCCNCC(CNCCN)C(=O)*
assay-metric: tissue uptake at 4 h (%ID/g)
Kindly answer with a numeric value in %ID/g, unit omitted.

compound	numeric-value
C[C@@H](O)[C@@H]1NC(=O)[C@H](CCCCN)NC(=O)[C@@H](Cc2ccc(NC(N)=O)cc2)NC(=O)[C@H](Cc2ccc(O)cc2)NC(=O)[C@H](NC(=O)[C@H](Cc2ccc(Cl)cc2)NC(=O)C(CNCCN)CNCCN)CSSC[C@@H](C(=O)N[C@H](Cc2ccc(O)cc2)C(N)=O)NC1=O [[^99mTc]Tc-TECANT-1, metal not drawn] (X1-[Phe(4-Cl)][dC]Y[dPhe(4-NHCONH2)]KTC[dY]-NH2; disulfide 2-7)	3.07

// switching to the query compound
So, C[C@@H](O)[C@@H]1NC(=O)[C@H](CCCCN)NC(=O)[C@@H](Cc2c[nH]c3ccccc23)NC(=O)[C@H](Cc2ccc(O)cc2)NC(=O)[C@H](NC(=O)[C@H](Cc2ccc(Cl)cc2)NC(=O)C(CNCCN)CNCCN)CSSC[C@@H](C(=O)N[C@H](Cc2ccc(O)cc2)C(N)=O)NC1=O [[^99mTc]Tc-TECANT-2, metal not drawn] ? Its tissue uptake at 4 h was 2.52
